organism: Rattus norvegicus; assay: DrugMatrix - Regimen: Daily Repeat; type: toxicity, organism-based, Sprague-Dawley; design: regimen Daily Repeat, gender Male, age 6-8 weeks; settings: in vivo, po, 0 mg/kg, 72 h, tissue Blood, route oral GAVAGE, dose level Control, time 3 day, vehicle 100 % WATER
Please go through the items and note down their NEUTROPHIL.
Express the result in % but write the number alone.

Prompt line: Fill blank: measured NEUTROPHIL of the compound `Cn1c(=O)c2[nH]cnc2n(C)c1=O.O` is ____.
Response line: 8.17

Prompt line: Try this compound next: `C[C@]12C=CC(=O)C=C1CC[C@@H]1[C@@H]2[C@@H](O)C[C@@]2(C)[C@H]1CC[C@]2(O)C(=O)CO`
Response line: 13.83

Prompt line: Try this compound next: `CS(=O)(=O)c1ccc([C@@H](O)[C@@H](CO)NC(=O)C(Cl)Cl)cc1`
Response line: 9.17

Prompt line: Try this compound next: CC(C)NCC(O)c1ccc(NS(C)(=O)=O)cc1 (centres undefined)
Response line: 8.5

---

organism: Rattus norvegicus; assay: DrugMatrix - Regimen: Daily Repeat; format: toxicity, organism-based, Sprague-Dawley; parameters: regimen Daily Repeat, gender Male, age 6-8 weeks; details: in vivo, po, 0 mg/kg, 120 h, tissue Plasma, route oral GAVAGE, dose level Control, time 5 day, vehicle .5 % CMC
PARAMETER: CARBON DIOXIDE (mmol/L)
Express the result in mmol/L but write the number alone.

Prompt line: Fill blank: measured CARBON DIOXIDE of the compound C[C@H]1O[C@@H](n2cc(F)c(=O)[nH]c2=O)[C@H](O)[C@@H]1O [DOXIFLURIDINE] is ____.
Response line: 28.33

Prompt line: Try this compound next: CN/C(=N/CCSCc1nc[nH]c1C)NC#N [CIMETIDINE]
Response line: 28.33

Prompt line: Try this compound next: O=C1C(CC[S+]([O-])c2ccccc2)C(=O)N(c2ccccc2)N1c1ccccc1 (stereo not given) [SULFINPYRAZONE]
Response line: 27.67

Prompt line: Try this compound next: CCN(CC)CCOc1ccc(/C(=C(/Cl)c2ccccc2)c2ccccc2)cc1 [ENCLOMIPHENE]
Response line: 27.5

Prompt line: Try this compound next: O=C1Nc2ccc(Cl)cc2C(c2ccccc2Cl)=NC1O (stereo not given) [LORAZEPAM]
Response line: 27.67

Prompt line: Try this compound next: COc1cc2nc(N3CCN(C(=O)c4ccco4)CC3)nc(N)c2cc1OC [PRAZOSIN]
Response line: 27.67

Prompt line: Try this compound next: CN(C)[C@@H]1C(O)=C(C(N)=O)C(=O)[C@@]2(O)C(O)=C3C(=O)c4c(O)ccc(Cl)c4[C@@](C)(O)[C@H]3C[C@@H]12 [CHLORTETRACYCLINE]
Response line: 27.17

Prompt line: Try this compound next: COC1=C(OC)C(=O)C(CCCCCCCCCCO)=C(C)C1=O [IDEBENONE]
Response line: 28.33

Prompt line: Try this compound next: Cn1c(=O)c2c(ncn2CC(O)CO)n(C)c1=O (stereo not given) [DYPHYLLINE]
Response line: 27.17

Prompt line: Try this compound next: O=C1CN=C(c2ccccc2Cl)c2cc([N+](=O)[O-])ccc2N1 [CLONAZEPAM]
Response line: 28.33
